- Test system: Es-2
- ASSAY TEXT: Primary qHTS to identify gynecologic anti-cancer compounds using libraries of approved drugs and bioactive compounds (AID 1345084); also: nearly all actives have a fitted effect of over 55% in size
- EXPERIMENTAL PARAMETERS: Gynecologic cancer cell panel viability, ATPlite luminescence, 48 h; series mostly up to 57.5 µM
Inconclusive results are not listed. Calls of active or inactive are those of the source. Calls follow the shape of the dose curve; as a rule, active = well fitted cell-killing curve with a large enough effect; inconclusive = small, poorly fitted or top-dose-only effect, or effect the other way; inactive = flat fitted curve, though single readings scatter.
Outcome codes: active, inactive

COMPOUND | QUALITATIVE LABEL
Cc1ccc(S(=O)(=O)n2ccc(-c3c(-c4ccc(Cl)cc4)noc3C)n2)cc1 | inactive
C/C(=C\CC[C@@H](C)[C@H]1CC(O)[C@@]2(C)C3CC[C@H]4C(C)(C)[C@@H](OC5OCC(O)C(O)C5OC5OC(CO)C(O)C(O)C5O)CC[C@@]45C[C@@]35CC(O)[C@]12C)C(=O)O (stereo partly specified) | inactive
C/C=C1\[C@H](O[C@@H]2O[C@H](CO)[C@@H](O)[C@H](O)[C@H]2O)OC=C(C(=O)OC)[C@H]1CC(=O)OC[C@H]1O[C@@H](OCCc2ccc(O)cc2)[C@H](O)[C@@H](O)[C@@H]1O | inactive
CC1CCC2(C=O)C(CO)=CCCC2C1(C)CC(=O)O (stereo unspecified) | inactive
C=C[C@H]1C(O[C@@H]2O[C@H](CO)[C@@H](O)[C@H](O)[C@H]2O)OC=C2C(=O)N3CCc4c([nH]c5ccccc45)C3CC21 (stereo partly specified) | inactive
Cc1cc(N(C)C)ccc1-c1nc2ccc(-c3nc4ccc(N5CCN(C)CC5)cc4[nH]3)cc2[nH]1 | inactive
CC(C)(C)CCN1C[C@@H]2C(CNC(=O)c3cc(Cl)cc(Cl)c3)[C@@H]2C1 (stereo partly specified) | inactive
CC1C(=O)CC2C3CCC(C(=O)O)C12CC3(C)CO (stereo unspecified) | inactive
COc1ccccc1Oc1ccc(N(Cc2cccnc2)S(=O)(=O)CC(F)(F)F)cc1 | inactive
CC1(C)CCC(C)(C)c2cc(C3(c4ccc(C(=O)O)cc4)OCCO3)ccc21 | inactive
COc1ncc(Nc2ncc([C@@H](C)N3CCN(S(C)(=O)=O)CC3)cc2-c2nc(C)nc(N)n2)cc1F | inactive
CC[C@]1(O)CC2CN(CCc3c([nH]c4ccccc34)[C@@](C(=O)OC)(c3cc4c(cc3OC)N(C)[C@H]3[C@@](O)(C(=O)OC)[C@H](OC(C)=O)[C@]5(CC)C=CCN6CC[C@]43[C@@H]65)C2)C1 (stereo partly specified) | active
Cn1c(=O)cc(N2CCCC(N)C2)n(Cc2cc(F)ccc2C#N)c1=O (stereo unspecified) | inactive
COc1cc(C2Oc3c(OC)cc(CCCO)cc3C2CO)ccc1O[C@H]1O[C@H](C)[C@@H](O)[C@H](O)[C@@H]1O (stereo partly specified) | inactive
CC(CO)C1CCC2(C)CC3C(CO)CC(O)C3C(C)(O)C/C=C/12 (stereo unspecified) | inactive
Nc1nc(-n2cc(C(=O)O)c(=O)c3cc(F)c(N4CC(O)C4)c(Cl)c32)c(F)cc1F | inactive
